# testedOn: SRPK3 (human)
# assaySummary: radiometric filter-binding kinase assay, Kinase HotSpot
# reportedConditions: compound 0.5 µM; ATP 10 µM
Please respond with reported residual activity for every item in the list.
Answers are plain numbers, in %.

For the 2 compounds below, give their residual activity values.
1. Clc1ccc(Nc2nnc(Cc3ccncc3)c3ccccc23)cc1
2. COc1cc2nccc(Oc3ccc(NC(=S)NC(=O)c4ccccc4C)cc3)c2cc1OC

Reply:
[104, 95.9]

For the 2 compounds below, give their residual activity values.
1. Nc1n[nH]c2nnc(-c3c(-c4ccccc4)nn4ccccc34)cc12
2. O=c1cc(N2CCNCC2)oc2c(-c3ccccc3)cccc12

Reply:
1: 88.9; 2: 94.4
